test system: MCF7; experiment: NCI tumour cell line growth inhibition, 48 h
Active and inactive are the calls of the source. Rule as the data show it: active = GI50 up to about 1.1 µM and inactive = higher.
Outcome codes: active, inactive

compound	answer-label
CCOC(=O)[C@@H]1CCN2CN(c3ccc(OC)cc3)N=C(c3ccccc3)[C@@]12c1ccccc1	inactive
COc1ccc(-c2nnc(CCCCCCCCc3nnc(-c4ccc(OC)cc4)n3N)n2N)cc1	inactive
CN(C)CCNC(=O)c1cccc2ccc(-c3ccc(O)cc3)nc12	active
Cc1cc(C23OC4COC(C)(C)OC4C2OC(C)(C)O3)nc2ccccc12 (configuration not stated)	inactive
CC1OC(OC2C(O)COC(OC3C(C)OC(OC4C(OC(=O)[C@]56CCC(C)(C)C[C@@H]5C5=CCC7[C@@]8(C)C[C@H](O)[C@H](OC9OC(CO)C(O)C(O)C9O)[C@@](C)(CO)[C@@H]8CC[C@@]7(C)[C@]5(C)CC6)OCC(O)C4O)C(O)C3OC3OCC(O)C(O)C3O)C2O)C(O)C(O)C1O (some centres not stated)	inactive
CCN(CC)CCNc1ccc2ncn3c4cc(OC)c(OC)c(O)c4c(=O)c1c23	inactive
COC1OC(C)/C(=N/O)C2OC(C)(C)OC12 (configuration not stated)	inactive
COc1ccc2[nH]c3cc4c(=O)c5cc(OC)ccc5[nH]c4cc3c(=O)c2c1	inactive
C[C@@H]1[C@@H]2[C@@H](C=C3C4CCC5Cc6nc7c(nc6C[C@@]5(C)C4C[C@H](O)[C@]32CO)CC2CCC3C4=C[C@H]5O[C@@]6(OC(C)(CO)C[C@@H]6O)[C@H](C)[C@@]5(O)[C@]4(C)[C@@H](O)CC3[C@]2(C)C7)O[C@]12CCC(C)(C)O2 (some centres not stated)	active
O=c1[nH]nc(-c2ccccc2)n1-n1cnnc1	inactive
CCn1c2ccccc2c2cc(NC(=O)c3c(C)nc(O)nc3NCCNCCO)ccc21	inactive
c1ccc(COC[C@H]2O[C@@H](c3ccccc3)C[C@@H](OCc3ccccc3)C2OCc2ccccc2)cc1 (some centres not stated)	inactive
CC(=O)OCCc1cc2ccccc2oc1=O	inactive
COc1ccc(OC)c(SC(CC(=O)c2ccccc2)c2ccccc2)c1 (configuration not stated)	inactive
COc1cc(C2c3cc4c(cc3[C@H](OCCN(C)C)[C@@H]3COC(=O)C23)OCO4)cc(OC)c1O (some centres not stated)	active
COC(=O)C1=CC(=O)OC1(OO)c1ccc(Br)cc1 (configuration not stated)	inactive
Oc1ccc(/C=N/NC(=S)Nc2cccnc2)nc1	inactive
